Sourced from the emibetuzumab library of Makowski et al. (2022)

B1: VH:VL chains; a variant is named by its letters at X, in order (parent)
chain 1: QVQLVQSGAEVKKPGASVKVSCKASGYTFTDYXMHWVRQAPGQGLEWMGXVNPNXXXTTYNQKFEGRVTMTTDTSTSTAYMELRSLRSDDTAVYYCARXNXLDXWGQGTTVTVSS
chain 2: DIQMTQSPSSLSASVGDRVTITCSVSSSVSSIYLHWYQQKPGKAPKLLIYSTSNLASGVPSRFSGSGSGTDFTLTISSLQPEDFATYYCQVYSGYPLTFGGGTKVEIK

- Variants of: B1
- TEST SUMMARY: yeast display scFab, FACS + sequencing
RESULT TYPE: non-specific binding call

VEAGDAGS ... no binding
FEKEGDAA ... no binding
FAGGSFAS ... binds
VTTKSAGV ... no binding
